Each entry below carries its recorded RP-LC retention time.
assay text: gradient 5% acetonitrile 3 min, to 50% in 2 min, to 85% in 15 min, held 3 min, 100 µL/min
reported conditions: column: Zorbax Extend-C18 2.1 x 50 mm; eluents: water / acetonitrile, 0.1% formic acid
Give your result in s as a bare value.

Recorded results for 4 compounds are shown here.
• Cc1cc(C)n(CCNC(=O)c2c(F)cccc2F)n1 = 607
• CCC(C)NC(=O)c1cnn(-c2cc(-c3nc(C4CC4)no3)ccn2)c1C (stereo not given) = 973
• COCC1CN(Cc2cn[nH]c2-c2ccccc2)CCC1(F)F (stereo not given) = 609
• COC(=O)C1=CN(CC(=O)NCc2ccc(Cl)cc2)S(=O)(=O)N=C1C = 850

Consider the compound CN(C)c1ncncc1N1CCC(C(=O)NC2CC2)CC1 and give its measured RP-LC retention time.
554

----------
assay text: gradient 5% acetonitrile 3 min, to 50% in 2 min, to 85% in 15 min, held 3 min, 100 µL/min
reported conditions: column: Zorbax Extend-C18 2.1 x 50 mm; eluents: water / acetonitrile, 0.1% formic acid
observed property: RP-LC retention time (s)
Give your result in s as a bare value.

Recorded results for 3 compounds are shown here.
• Cc1cc(-c2csc(S(=O)(=O)NCCCN3CCN(C)CC3)c2)on1 = 580
• CC(=O)Nc1c(C)nn(-c2ccccc2)c1N1CCC(C(=O)N2CCN(C3CCCCC3)CC2)CC1 = 597
• CCC(=O)Nc1cc2c(cc1S(=O)(=O)c1ccccc1)n(CC)c(=O)n2CC = 786

Consider the compound COc1cccc(NC(=O)Cc2c(C)nn(-c3nc(-c4ccc(Cl)cc4)cs3)c2C)c1 and give its measured RP-LC retention time.
1230

Consider the compound CC(C)CCNC(=O)C1CCCN(C(=O)Nc2ccc(NC(=O)NC3CCCC3)cc2)C1 (centres undefined) and give its measured RP-LC retention time.
762

----------
assay text: gradient 5% acetonitrile 3 min, to 50% in 2 min, to 85% in 15 min, held 3 min, 100 µL/min
reported conditions: column: Zorbax Extend-C18 2.1 x 50 mm; eluents: water / acetonitrile, 0.1% formic acid
Each entry below carries its recorded RP-LC retention time.
Give your result in s as a bare value.

- Cc1nc(Nc2ccc(F)cn2)sc1C(=O)NCCC1=CCCCC1: 963
- Cc1nn(-c2ccccc2)c(C)c1CCc1nn2c(-c3cccc(F)c3)nnc2s1: 934
- Cc1ccc(-c2noc(-c3ccc4c(c3)OCCO4)n2)cc1: 1250
- Cc1ccc(S(=O)(=O)NCCC(=O)O)cc1C: 639
- CCOc1ccc(NC(=O)CN2CCN(Cc3ccc(C)cc3)C(=O)C2=O)cc1: 799
- Cc1sc2cc(C(=O)NCCN(C)C)[nH]c2c1CN1CCCCC1: 536

Next, consider the following molecule.
Consider the molecule Cc1cc(=O)n(CC(=O)Nc2ccc(Cl)cc2)c(-c2ccccc2)n1 and give its measured RP-LC retention time.
1080

----------
assay text: gradient 5% acetonitrile 3 min, to 50% in 2 min, to 85% in 15 min, held 3 min, 100 µL/min
reported conditions: column: Zorbax Extend-C18 2.1 x 50 mm; eluents: water / acetonitrile, 0.1% formic acid
# if measured RP-LC retention time < 800 s: yes (1)  # else: no (0)

These recorded examples may help you get a feel for the data.
- Cc1noc(C2CN(C(=O)c3ccc(F)c(F)c3)CC23CCOCC3)n1 (stereo unspecified): yes (1)
- CCc1ccc(NC(=O)COc2cc(C)nc(N3CCN(c4ccccc4)CC3)n2)cc1: no (0)
- Cc1ccc(S(=O)(=O)N2C(=O)CCC2C(=O)N(C)C2CCCCC2)cc1C (stereo unspecified): no (0)
- COc1cccc(N2CCN(C(=O)c3cc4sccc4n3C)CC2)c1: no (0)
- Cc1nc2cc(-c3noc(-c4cccc(F)c4)n3)ccc2o1: no (0)
- CC1=NS(=O)(=O)N(Cc2ccccc2)C=C1C(=O)OCc1ccc(F)c(F)c1: no (0)

Lab note: confirm whether the reported RP-LC retention time for this compound is below 800 s, equality not counting. compound: COc1cccc(-n2c(=O)c(C(=O)NC(C)c3ccccc3)c(O)c3cccnc32)c1 (stereo unspecified)
no (0)

Lab note: confirm whether the reported RP-LC retention time for this compound is below 800 s, equality not counting. compound: COc1ccc(-c2nc3ccc(Br)cn3c2Nc2ccccc2C)cc1
no (0)

Lab note: confirm whether the reported RP-LC retention time for this compound is below 800 s, equality not counting. compound: CCC(CC)N1CCN(C(=O)c2ccc3[nH]c4c(c3c2)CN(C(=O)C2CCC2)CC4)CC1
yes (1)

Lab note: confirm whether the reported RP-LC retention time for this compound is below 800 s, equality not counting. compound: CCn1cc(CC(=O)NCCOC)c2cccnc21
yes (1)

Lab note: confirm whether the reported RP-LC retention time for this compound is below 800 s, equality not counting. compound: Cn1c(C(=O)N2CCCC(C(=O)N3CCN(c4ccccn4)CC3)C2)cc2sccc21 (stereo unspecified)
yes (1)

Lab note: confirm whether the reported RP-LC retention time for this compound is below 800 s, equality not counting. compound: O=C(Cc1cc(-c2ccc3c(c2)OCCO3)on1)N1CCN(c2ccccc2F)CC1
no (0)

Lab note: confirm whether the reported RP-LC retention time for this compound is below 800 s, equality not counting. compound: Cc1cnc(C)n1CC1CCN(S(=O)(=O)c2ccc(C#N)cc2)C1 (stereo unspecified)
yes (1)

Lab note: confirm whether the reported RP-LC retention time for this compound is below 800 s, equality not counting. compound: CCN1C(=O)c2cc(C(=O)Nc3ccc(Cl)cc3)nn2CC1(C)C(=O)NC1CCCC1 (stereo unspecified)
no (0)

Lab note: confirm whether the reported RP-LC retention time for this compound is below 800 s, equality not counting. compound: CCOC(=O)C1CCCN(Cc2nc3nc(C)cc(N4CCCC4)n3n2)C1 (stereo unspecified)
yes (1)

Lab note: confirm whether the reported RP-LC retention time for this compound is below 800 s, equality not counting. compound: Cn1cnc(S(=O)(=O)NCCc2noc(-c3ccncc3)n2)c1
yes (1)

----------
assay text: gradient 5% acetonitrile 3 min, to 50% in 2 min, to 85% in 15 min, held 3 min, 100 µL/min
reported conditions: column: Zorbax Extend-C18 2.1 x 50 mm; eluents: water / acetonitrile, 0.1% formic acid
Each entry below carries its recorded RP-LC retention time.

• COc1ccccc1OCCNC(=O)C1CC(=O)N(c2n[nH]c3ccccc23)C1 (stereo not drawn) = 682 s

Consider the compound CN(C)C(=O)CN1C(=O)COc2ccc(C(=O)N3CCN(c4ccccc4)CC3)cc21 and give its measured RP-LC retention time.
702 s

Consider the compound CCc1nnc(-c2ccc(=O)n(CC(=O)Nc3ccc(C)cc3C)c2)o1 and give its measured RP-LC retention time.
693 s

----------
assay text: gradient 5% acetonitrile 3 min, to 50% in 2 min, to 85% in 15 min, held 3 min, 100 µL/min
reported conditions: column: Zorbax Extend-C18 2.1 x 50 mm; eluents: water / acetonitrile, 0.1% formic acid
# if measured RP-LC retention time < 800 s: 1 (yes)  # else: 0 (no)

Lab note: confirm whether the reported RP-LC retention time for this compound is below 800 s, equality not counting. compound: CCOC(=O)CN1N=C(C(=O)N2CCC(C)CC2)S(=O)(=O)c2ccccc21
0 (no)

Lab note: confirm whether the reported RP-LC retention time for this compound is below 800 s, equality not counting. compound: O=C(NCCc1c[nH]c2ccccc12)C1CCN(c2nnc(N3CCCCC3=O)s2)CC1
1 (yes)

Lab note: confirm whether the reported RP-LC retention time for this compound is below 800 s, equality not counting. compound: CC(C)n1c(=O)oc2cc(-c3noc(-c4ccc(F)cc4)n3)ccc21
0 (no)

Lab note: confirm whether the reported RP-LC retention time for this compound is below 800 s, equality not counting. compound: O=C(NC1CCCCCC1)C1CCCN(c2nn3c(=O)c4c(nc3s2)CCCC4)C1 (configuration not stated)
0 (no)

Lab note: confirm whether the reported RP-LC retention time for this compound is below 800 s, equality not counting. compound: Cc1ccc(CNC(=O)C(C)n2nc(C)c3nn(-c4ccccc4)c(-n4cccc4)c3c2=O)o1 (configuration not stated)
0 (no)

----------
assay text: gradient 5% acetonitrile 3 min, to 50% in 2 min, to 85% in 15 min, held 3 min, 100 µL/min
reported conditions: column: Zorbax Extend-C18 2.1 x 50 mm; eluents: water / acetonitrile, 0.1% formic acid
observed property: RP-LC retention time (s)
Give your result in s as a bare value.

Recorded results for 2 molecules are shown here.
- CCCn1cc(C(=O)NCCC(C)C)c(S(=O)(=O)N2CCN(c3ccccc3OCC)CC2)n1: 1240
- CCCS(=O)(=O)N1CCC(CCOC)(NC(=O)C2CC2)CC1: 686

Consider the molecule CSc1ccc(CNC(=O)c2ccc3ncnc(N4CCCC4)c3c2)cc1 and give its measured RP-LC retention time.
669

Consider the molecule COc1ccc(C(=O)Nc2cccn3cnnc23)cc1F and give its measured RP-LC retention time.
676

Consider the molecule c1cc(N2CCCCC2)ncc1-c1noc(CN2CCC3(CC2)OCCO3)n1 and give its measured RP-LC retention time.
637

Each recorded value in this set is attributed to the METLIN SMRT retention time set (Domingo-Almenara et al. 2019).
